Would you kindly list inhibition for each of these compounds?
target: Glucose transporter (Leishmania mexicana); experiment: ST_JUDE_LEISH: Cytotoxicity at 2uM final concentration against transgenic Leishmania Mexicana promastigotes LmGT2 that are glucose transport deficient and complemented with the L. Mexicana glucose transporter 2. Activity is measured by DNA content using SYBR green in vitro; format: functional
Answers are plain numbers, in %.

Example cases with answers are listed next.
COMPOUND	UNIT_ANNOTATION	VALUE_REPORTED
CCOc1cc(O)c(-c2nc(N)ncc2-c2ccc3c(c2)OCCO3)cc1CC	%	4.66
COc1ccc2nc(-c3ccccc3)cc(NCCCNc3cc(-c4ccccc4)nc4ccc(OC)cc34)c2c1	%	0.67
Cc1cc(=NN=CC=Cc2ccccc2)c2cc(F)ccc2[nH]1	%	0.04
CN(C)CCNC(=O)c1cc2c(-c3ccc(Cl)cc3)nn(C)c2s1	%	1.3
CNCCNCc1cccc(-c2ccc(-c3nc4cc(C(F)(F)F)ccc4[nH]3)cc2)c1	%	2.03

Hey, can you go through the list below and give me inhibition for every item?
1. Cn1cnc(CCNC(=O)c2ccc(-c3cccc(-c4nc5ccccc5[nH]4)c3)cc2)c1
2. COc1cccc(Nc2nc(C)cc(NC3CCCC3)n2)c1
3. CCN(CC)CCN1C(=O)c2oc3ccc(F)cc3c(=O)c2C1c1cccc(Cl)c1 (stereo not drawn)
4. C=CCc1cc(Cc2cnc(N)nc2N)c2ccc(C)nc2c1O
5. COc1ccc(CN2CCC(Oc3cccc(NC(=O)c4ccc(C(F)(F)F)cc4)c3)CC2)cc1
6. O=C(Nc1ccnc2ccccc12)NC1CCN(CCc2ccccc2)CC1

Ans:
1: -1.62; 2: 5.08; 3: 4.25; 4: 0.24; 5: 3.45; 6: 7.91
